biological target: Endothelin-1 receptor (Homo sapiens, UniProt P25101); assay: Antagonist activity towards human recombinant Endothelin A receptor expressed in chinese hamster ovary (CHO) cells determined using [125I]ET1 as radioligand
Sequence (P25101 whole entry): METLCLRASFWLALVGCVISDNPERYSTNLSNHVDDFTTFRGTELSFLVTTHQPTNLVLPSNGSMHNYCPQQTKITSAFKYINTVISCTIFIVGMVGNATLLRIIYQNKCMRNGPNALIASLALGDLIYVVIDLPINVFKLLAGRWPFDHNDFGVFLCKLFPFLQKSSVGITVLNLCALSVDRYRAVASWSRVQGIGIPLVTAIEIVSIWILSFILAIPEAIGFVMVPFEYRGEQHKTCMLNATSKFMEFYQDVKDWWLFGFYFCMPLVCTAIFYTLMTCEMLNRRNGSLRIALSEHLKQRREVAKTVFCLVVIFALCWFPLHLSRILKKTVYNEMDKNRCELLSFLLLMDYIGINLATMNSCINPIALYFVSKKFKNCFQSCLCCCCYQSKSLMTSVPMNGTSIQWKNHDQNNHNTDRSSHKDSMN
pIC50: −log10 of the molar value.
Recorded Metric: pIC50

Compound	Measured On	Measured Value
Cc1cc(C)nc(O[C@H](C(=O)O)[C@@]2(c3ccccc3)NCC(=O)N(Cc3cccc(Cl)c3)c3ccccc32)n1 (racemic)	Endothelin-1 receptor (Homo sapiens, UniProt P25101)	8.24

(P) Cc1cc(C)nc(O[C@H](C(=O)O)[C@@]2(c3ccccc3)NCC(=O)N(CCN(C)C)c3ccccc32)n1 (racemic)
(Q) Cc1cc(C)nc(O[C@H](C(=O)O)[C@@]2(c3ccccc3)NCC(=O)N(Cc3cccc(F)c3F)c3ccccc32)n1 (racemic)
(R) Cc1cc(C)nc(O[C@H](C(=O)O)[C@@]2(c3ccccc3)NCC(=O)N(Cc3ccc(F)c(F)c3F)c3ccccc32)n1 (racemic)
Asked: Place the items in sequence of falling pIC50. Order the labels as requested and give them as your answer.
Given back: Q, R, P

---

biological target: Endothelin-1 receptor (Homo sapiens, UniProt P25101); test: Antagonist activity towards human recombinant Endothelin A receptor expressed in chinese hamster ovary (CHO) cells determined using [125I]ET1 as radioligand
Recorded Metric: IC50 (nM)

Consider the reported IC50 for these molecules:
Molecule	IC50 (nM)
Cc1cc(C)nc(O[C@H](C(=O)O)[C@@]2(c3cccc(-c4ccccc4)c3)NCC(=O)N(Cc3c(Cl)cccc3Cl)c3ccccc32)n1 (racemic)	16.9
Cc1cc(C)nc(O[C@H](C(=O)O)[C@@]2(c3ccccc3)NCC(=O)N(Cc3cccc(OC(F)(F)F)c3)c3ccccc32)n1 (racemic)	11

(A) Cc1cc(C)nc(O[C@H](C(=O)O)[C@@]2(c3ccccc3)NCC(=O)N(Cc3ccc(C(C)(C)C)cc3)c3ccccc32)n1 (racemic)
(B) COc1cc(OC)cc(O[C@H](C(=O)O)[C@@]2(c3ccccc3)NCC(=O)N(C)c3cc(OC)c(OC)cc32)c1 (racemic)
Asked: // returns A or B , whichever has the lower IC50 Answer format: the label of the selected item.
Given back: A
(A: 17.1 nM, B: 443 nM)

---

target: Endothelin-1 receptor (Homo sapiens); assay: Antagonist activity towards human recombinant Endothelin A receptor expressed in chinese hamster ovary (CHO) cells determined using [125I]ET1 as radioligand
pIC50: −log10 of the molar value.
Recorded Metric: pIC50

Compound	Measured Value
Cc1cccc(O[C@H](C(=O)O)[C@@]2(c3ccccc3)NCC(=O)N(Cc3c(Cl)cccc3Cl)c3ccccc32)c1 (racemic)	7.54

(P) Cc1cc(C)nc(O[C@H](C(=O)O)[C@@]2(c3ccccc3)NCC(=O)N(C)c3ccccc32)n1 (racemic)
(Q) COc1ccc(CN2C(=O)CN[C@](c3ccc(F)c(C)c3)([C@H](Oc3nc(C)cc(C)n3)C(=O)O)c3ccccc32)cc1 (racemic)
Asked: Select the item with the higher value of pIC50 from the options P and Q listed. Answer format: the label of the selected item.
Given back: Q

(P) Cc1cc(C)nc(O[C@H](C(=O)O)[C@@]2(c3ccccc3)NCC(=O)N(Cc3ccccc3C(F)(F)F)c3ccccc32)n1 (racemic)
(Q) Cc1cc(C)nc(O[C@H](C(=O)O)[C@@]2(c3ccccc3)NCC(=O)N(Cc3ccc(C(F)(F)F)cc3)c3ccccc32)n1 (racemic)
(R) COc1cc(OC)cc(O[C@H](C(=O)O)[C@@]2(c3ccccc3)NCC(=O)N(C)c3cc(OC)ccc32)c1 (racemic)
(S) Cc1cc(C)nc(O[C@H](C(=O)O)[C@@]2(c3ccccc3)NCC(=O)N(Cc3ccccc3Cl)c3ccccc32)n1 (racemic)
(T) CCc1cccc([C@]2([C@H](Oc3nc(C)cc(C)n3)C(=O)O)NCC(=O)N(Cc3ccc(OC)cc3)c3ccccc32)c1 (racemic)
Asked: Place the items in sequence of falling pIC50. Order the labels as requested and give them as your answer.
Given back: T, S, Q, P, R

(a) COc1ccccc1O[C@H](C(=O)O)[C@@]1(c2ccccc2)NCC(=O)N(Cc2c(Cl)cccc2Cl)c2ccccc21 (racemic)
(b) COc1ccc(CN2C(=O)CN[C@](c3cccc(Cl)c3)([C@H](Oc3nc(C)cc(C)n3)C(=O)O)c3ccccc32)cc1 (racemic)
(c) Cc1cc(C)nc(O[C@H](C(=O)O)[C@@]2(c3ccccc3)NCC(=O)N(Cc3nn[nH]n3)c3ccccc32)n1 (racemic)
Asked: Place the items in sequence of falling pIC50. Order the labels as requested and give them as your answer.
Given back: c, b, a

(P) Cc1cc(C)nc(O[C@H](C(=O)O)[C@@]2(c3ccccc3)NCC(=O)N(Cc3ccccc3)c3ccccc32)n1 (racemic)
(Q) Cc1cc(C)nc(O[C@H](C(=O)O)[C@@]2(c3ccccc3)NCCOc3ccccc32)n1 (racemic)
(R) Cc1cc(C)nc(O[C@H](C(=O)O)[C@@]2(c3ccccc3)NCC(=O)N(Cc3c(F)cccc3F)c3ccccc32)n1 (racemic)
(S) CCc1cc(CC)nc(O[C@H](C(=O)O)[C@@]2(c3ccccc3)NCC(=O)N(C)c3ccccc32)n1 (racemic)
Asked: Ascending sort, pIC50. Order the labels as requested and give them as your answer.
Given back: Q, S, P, R
(Q: 7.16, S: 7.69, P: 8.19, R: 8.96)

---

target: Endothelin-1 receptor (Homo sapiens, UniProt P25101); assay: Antagonist activity towards human recombinant Endothelin A receptor expressed in chinese hamster ovary (CHO) cells determined using [125I]ET1 as radioligand
Recorded Metric: IC50 (nM)

Compound	Unit Abbreviation	Measured Value
COc1cc(OC)cc(O[C@H](C(=O)O)[C@@]2(c3ccccc3)NCC(=O)N(Cc3c(Cl)cccc3Cl)c3ccccc32)c1 (racemic)	nM	46.2
Cc1cc(C)nc(O[C@H](C(=O)O)[C@@]2(c3ccccc3)NCC(=O)N(Cc3ccc(Cl)cc3)c3ccccc32)n1 (racemic)	nM	17.3
Cc1cc(C)nc(O[C@H](C(=O)O)[C@@]2(c3ccccc3)NCC(=O)N(Cc3ccc(-c4ccccc4)cc3)c3ccccc32)n1 (racemic)	nM	102
COc1cc(OC)cc(O[C@H](C(=O)O)[C@@]2(c3ccccc3)NCC(=O)N(C)c3ccc(Cl)cc32)c1 (racemic)	nM	262
Cc1cc(C)nc(O[C@H](C(=O)O)[C@@]2(c3ccccc3)NCC(=O)N(CCN3CCOCC3)c3ccccc32)n1 (racemic)	nM	126

(1) Cc1ccc(CN2C(=O)CN[C@](c3ccccc3)([C@H](Oc3nc(C)cc(C)n3)C(=O)O)c3ccccc32)cc1 (racemic)
(2) Cc1cc(C)nc(O[C@H](C(=O)O)[C@@]2(c3ccccc3)NCC(=O)N(Cc3c(F)c(F)c(F)c(F)c3F)c3ccccc32)n1 (racemic)
Asked: // returns 1 or 2 , whichever has the lower IC50 Answer format: the label of the selected item.
Given back: 2

(A) CCCCCCN1C(=O)CN[C@](c2ccccc2)([C@H](Oc2nc(C)cc(C)n2)C(=O)O)c2ccccc21 (racemic)
(B) Cc1cc(C)nc(O[C@H](C(=O)O)[C@@]2(c3ccccc3)NCC(=O)N(Cc3cccc(F)c3)c3ccccc32)n1 (racemic)
(C) Cc1cc(C)nc(O[C@H](C(=O)O)[C@@]2(c3ccccc3)NCCCc3ccccc32)n1 (racemic)
(D) Cc1cc(C)nc(O[C@H](C(=O)O)[C@@]2(c3ccccc3)NCC(=O)N(CC(=O)O)c3ccccc32)n1 (racemic)
Asked: Place the items in sequence of falling IC50. Order the labels as requested and give them as your answer.
Given back: C, A, D, B
(C: 91.7 nM, A: 23.7 nM, D: 13 nM, B: 6.7 nM)

---

molecular target: Endothelin receptor type B (Homo sapiens, UniProt P24530); assay: Antagonist activity towards human recombinant Endothelin B receptor expressed in chinese hamster ovary (CHO) cells determined using [125I]ET1 as radioligand
Sequence (P24530 whole entry): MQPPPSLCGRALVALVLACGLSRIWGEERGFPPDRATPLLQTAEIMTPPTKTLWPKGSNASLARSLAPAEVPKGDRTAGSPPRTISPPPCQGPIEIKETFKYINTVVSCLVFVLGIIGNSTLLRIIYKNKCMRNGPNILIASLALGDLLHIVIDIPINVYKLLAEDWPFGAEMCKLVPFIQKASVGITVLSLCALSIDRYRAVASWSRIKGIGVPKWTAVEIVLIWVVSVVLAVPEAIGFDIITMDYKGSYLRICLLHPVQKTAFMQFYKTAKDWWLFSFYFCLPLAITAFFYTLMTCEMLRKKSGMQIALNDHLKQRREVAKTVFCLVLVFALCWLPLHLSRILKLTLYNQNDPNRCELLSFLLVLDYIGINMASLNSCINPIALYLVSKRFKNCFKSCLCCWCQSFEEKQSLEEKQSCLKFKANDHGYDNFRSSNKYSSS
Recorded Metric: IC50 (nM)

Compound	Measured Value
COc1ccc(CN2C(=O)CN[C@](c3cccc(-c4ccccc4)c3)([C@H](Oc3nc(C)cc(C)n3)C(=O)O)c3ccccc32)cc1 (racemic)	86.8
Cc1cc(C)nc(O[C@H](C(=O)O)[C@@]2(c3ccccc3)NCC(=O)N(Cc3ccc(Br)cc3)c3ccccc32)n1 (racemic)	119
Cc1cc(C)nc(O[C@H](C(=O)O)[C@@]2(c3ccccc3)NCC(=O)N(CCO)c3ccccc32)n1 (racemic)	108

---

target: UniProt P24530; experiment: Antagonist activity towards human recombinant Endothelin B receptor expressed in chinese hamster ovary (CHO) cells determined using [125I]ET1 as radioligand
pIC50: −log10 of the molar value.
Recorded Metric: pIC50

(I) Cc1cccc(CN2C(=O)CN[C@](c3ccccc3)([C@H](Oc3nc(C)cc(C)n3)C(=O)O)c3ccccc32)c1 (racemic)
(II) Cc1cc(C)nc(O[C@H](C(=O)O)[C@@]2(c3ccccc3)NCC(=O)N(Cc3ccc(C(=O)O)cc3)c3ccccc32)n1 (racemic)
Asked: Select the item with the higher value of pIC50 from the options I and II listed. Answer format: the label of the selected item.
Given back: I
(I: 7.78, II: 5.45)
